Sourced from the supplement of paper PMC10598134

Assay: collision cross section of modified peptide (TIMS, N2, iRT-aligned); higher = larger / more extended gas-phase ion
Conditions: charge state: 2; modification: Formyl
Reported collision cross section by item:
Express it in Å²; write the number only.

Below, 5 sequences whose answers are already recorded.
- Input Sequence: "KYEEIDNAPEER [_K(Formyl)YEEIDNAPEER_]"
  Result Type: "collision cross section"
  Units Symbol: "Å²"
  Recorded Value: 405.5
- Input Sequence: "DDSFLGKLGGTLAR [_DDSFLGK(Formyl)LGGTLAR_]"
  Result Type: "collision cross section"
  Units Symbol: "Å²"
  Recorded Value: 408.49
- Input Sequence: "LTEKELAEAASK [_LTEK(Formyl)ELAEAASK_]"
  Result Type: "collision cross section"
  Units Symbol: "Å²"
  Recorded Value: 382.92
- Input Sequence: "GAEKTEVAEPR [_GAEK(Formyl)TEVAEPR_]"
  Result Type: "collision cross section"
  Units Symbol: "Å²"
  Recorded Value: 371.26
- Input Sequence: "IVSGKDYNVTANSK [_IVSGK(Formyl)DYNVTANSK_]"
  Result Type: "collision cross section"
  Units Symbol: "Å²"
  Recorded Value: 405.86

Lookup result for ITESVAETAQTIKK [_ITESVAETAQTIK(Formyl)K_] ; measured collision cross section: 415.52

Lookup result for PSVGSQSNQAGQGKR [_PSVGSQSNQAGQGK(Formyl)R_] ; measured collision cross section: 402.96

Lookup result for DSSPTTNSKLSALQR [_DSSPTTNSK(Formyl)LSALQR_] ; measured collision cross section: 427.17

====

Experiment: collision cross section of modified peptide (TIMS, N2, iRT-aligned); higher = larger / more extended gas-phase ion
Details: charge state: 2; modification: Succinyl
Reported collision cross section by item:
Express it in Å²; write the number only.

Below, 4 sequences whose answers are already recorded.
- Input Sequence: "TLDEILQEKK [_TLDEILQEK(Succinyl)K_]"
  collision cross section (Å²): 382.2
- Input Sequence: "AAQASDLEKIHLDEK [_AAQASDLEK(Succinyl)IHLDEK_]"
  collision cross section (Å²): 468.29
- Input Sequence: "ALLQAKASGK [_ALLQAK(Succinyl)ASGK_]"
  collision cross section (Å²): 349.13
- Input Sequence: "GFALVGVGSEASSKK [_GFALVGVGSEASSK(Succinyl)K_]"
  collision cross section (Å²): 413.38

Lookup result for AGQKLIDVNHYAK [_AGQK(Succinyl)LIDVNHYAK_] ; measured collision cross section: 435.59

Lookup result for SEASSEFAKK [_SEASSEFAK(Succinyl)K_] ; measured collision cross section: 351.69

Lookup result for STGLELETPSLVPVKK [_STGLELETPSLVPVK(Succinyl)K_] ; measured collision cross section: 449.72

Lookup result for VGIDTPDIDIHGPEGKLK [_VGIDTPDIDIHGPEGK(Succinyl)LK_] ; measured collision cross section: 494.78

Lookup result for SGNLTEDDKHNNAK [_SGNLTEDDK(Succinyl)HNNAK_] ; measured collision cross section: 424.64

Lookup result for GTITVSAQELKDNR [_GTITVSAQELK(Succinyl)DNR_] ; measured collision cross section: 421.79

Lookup result for LDHLAEKFR [_LDHLAEK(Succinyl)FR_] ; measured collision cross section: 369.4

Lookup result for ISALQGKLSK [_ISALQGK(Succinyl)LSK_] ; measured collision cross section: 354.02

Lookup result for FGTINIVHPKLGSYTK [_FGTINIVHPK(Succinyl)LGSYTK_] ; measured collision cross section: 474.47

Lookup result for VGVEVPDVNIEGPEGKLK [_VGVEVPDVNIEGPEGK(Succinyl)LK_] ; measured collision cross section: 461.15

Lookup result for VGLQVVAVKAPGFGDNR [_VGLQVVAVK(Succinyl)APGFGDNR_] ; measured collision cross section: 449.31

Lookup result for SKHLQEQLNELK [_SK(Succinyl)HLQEQLNELK_] ; measured collision cross section: 419.21

Lookup result for LLEQKTQESQK [_LLEQK(Succinyl)TQESQK_] ; measured collision cross section: 400.32

Lookup result for ASEALLKQLK [_ASEALLK(Succinyl)QLK_] ; measured collision cross section: 374.59
